# Lookup of reported AC50 keyed by entry
Tgt: Thromboxane A2 receptor (Homo sapiens)
Sequence (P21731 whole entry): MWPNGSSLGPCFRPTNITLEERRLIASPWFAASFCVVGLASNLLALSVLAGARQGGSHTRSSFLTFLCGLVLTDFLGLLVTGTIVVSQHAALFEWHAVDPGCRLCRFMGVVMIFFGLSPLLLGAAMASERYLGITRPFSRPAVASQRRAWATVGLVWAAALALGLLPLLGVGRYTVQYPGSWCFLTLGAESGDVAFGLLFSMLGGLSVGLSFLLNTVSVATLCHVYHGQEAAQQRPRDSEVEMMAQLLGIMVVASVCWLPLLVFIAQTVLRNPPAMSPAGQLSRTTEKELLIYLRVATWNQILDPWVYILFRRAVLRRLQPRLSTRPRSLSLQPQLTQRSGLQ
Format: functional, cell-based

{"Structure As Smiles": "Cc1nnc(SCC2=C(C(=O)O)N3C(=O)[C@@H](NC(=O)Cn4cnnn4)[C@H]3SC2)s1", "Endpoint Result": "> 300 µM"}

Q: Suppose we examine the molecule CC(C)c1cccc(C(C)C)c1O ; what AC50 value has been reported?
Result: > 30 µM

Q: AC50 lookup needed for S=P(N1CC1)(N1CC1)N1CC1 , thanks.
Result: > 30 µM

====

Record type: AC50 measurement. Applies to: Kappa-type opioid receptor (Homo sapiens, UniProt P41145)

{"Molecule": "Cc1ccnc2c1NC(=O)c1cccnc1N2C1CC1", "AC50": "> 10 µM"}
{"Molecule": "C[C@]12C=CC(=O)C=C1CC[C@@H]1[C@@H]2CC[C@]2(C)OC(=O)CC[C@@H]12", "AC50": "> 10 µM"}
{"Molecule": "CC[C@H](C)C(=O)O[C@H]1C[C@@H](C)C=C2C=C[C@H](C)[C@H](CC[C@@H]3C[C@@H](O)CC(=O)O3)[C@H]21", "AC50": "> 10 µM"}
{"Molecule": "CC(C(=O)O)c1ccc2c(c1)CC(=O)c1ccccc1S2 (stereo not drawn)", "AC50": "24 µM"}
{"Molecule": "CC(C(=O)O)c1ccc2oc(-c3ccc(Cl)cc3)nc2c1 (stereo not drawn)", "AC50": "> 30 µM"}

Q: Record lookup: for Kappa-type opioid receptor (Homo sapiens, UniProt P41145), what AC50 belongs to CC(C)(Oc1ccc(CCNC(=O)c2ccc(Cl)cc2)cc1)C(=O)O [BEZAFIBRATE] ?
Result: > 10 µM

Q: Missing value: AC50, Kappa-type opioid receptor (Homo sapiens, UniProt P41145), entry NS(=O)(=O)c1cc2c(cc1Cl)N=C(CSCc1ccccc1)NS2(=O)=O [BENZTHIAZIDE] . Fill in?
Result: > 10 µM

Q: Please tell me: AC50 of CC(C)C[C@H](NC(=O)[C@@H](O)[C@H](N)Cc1ccccc1)C(=O)O , system Kappa-type opioid receptor (Homo sapiens, UniProt P41145)?; further: assay procedure not described here
Result: > 30 µM
